FYI, the data here is from paper PMC12040169.

test: in vitro; conditions: human, hela cells, % viability
MEASURED PARAMETER: viability at 28.5 h, 10 µM

Documented viability at 28.5 h, 10 µM of CCOC(=O)CN(C)Cc1ccccc1Br [CBK261891] : 108%

Documented viability at 28.5 h, 10 µM of CCSc1ncc(Cl)c(C(=O)N(Cc2cccc(Br)c2)C2CCS(=O)(=O)C2)n1 (stereo not shown) [CBK268969] : 90.3%

Documented viability at 28.5 h, 10 µM of Cn1nnnc1SCCNC(=O)Nc1cccc(CN2CCCCC2)c1 [CBK306872] : 97.3%

Documented viability at 28.5 h, 10 µM of Cc1ccc(N(CC(=O)O)S(C)(=O)=O)cc1C [CBK286978] : 87.1%

Documented viability at 28.5 h, 10 µM of COCCc1noc(C(C)NC(=O)Cc2cccc(O)c2)n1 (stereo not shown) [CBK307493] : 99.5%

Documented viability at 28.5 h, 10 µM of O=C(Nc1ccc2nc(CN3CCOCC3)[nH]c2c1)C1CCCCC1 [CBK305728] : 80.5%

Documented viability at 28.5 h, 10 µM of NC(=O)c1ccnc(Cl)c1 [CBK089827] : 96%

Documented viability at 28.5 h, 10 µM of O=c1nc(-c2cc(Br)cs2)[nH]c2ccc(Cl)cc12 [CBK018959] : 90.5%

Documented viability at 28.5 h, 10 µM of O=C(Nc1cccc(Cl)c1)c1cc2cc(O)ccc2cc1O [CBK016894] : 98.2%

Documented viability at 28.5 h, 10 µM of Cc1nn(-c2ccc(F)cc2)c(C)c1C(=O)NCc1ccnc(N2CCCC2)c1 [CBK296700] : 93.3%

----------
assay: in vitro; conditions: human, hela cells, % viability
MEASURED PARAMETER: viability at 28.5 h, 10 µM (%)
Lab book: enter the figure in %, no units written.

Documented viability at 28.5 h, 10 µM of `O[C@@H]1C[C@@H](c2nc(-c3ccncc3)no2)N(Cc2ccc(F)cc2)C1` : 94.3

Documented viability at 28.5 h, 10 µM of `CCc1c(C)sc2ncn(C3CCNCC3)c(=O)c12` : 81.2

Documented viability at 28.5 h, 10 µM of Cc1nc(C)n(CC2CCCN(Cc3cc(=O)n4ccccc4n3)C2)n1 (stereo not drawn) : 88.5

Documented viability at 28.5 h, 10 µM of `Cc1ccccc1C(=O)Nc1cccc(-c2nnc(SCC(=O)c3ccc(Cl)cc3)n2C)c1` : 89.3

Documented viability at 28.5 h, 10 µM of `CN(C)CCCC(=O)NCc1ccc(-c2csnn2)cc1` : 91

Documented viability at 28.5 h, 10 µM of CCCOC1CCCN(Cc2c(C)n(CC(N)=O)c3ccccc23)C1 (stereo not drawn) : 99.2

Documented viability at 28.5 h, 10 µM of CC(=O)NC(c1ccccn1)C1CCCN(C(=O)C2CCCCC2)C1 (stereo not drawn) : 109

Documented viability at 28.5 h, 10 µM of `CSc1ccc(S(=O)(=O)NCCSCc2ccc(C)cc2)cc1` : 104

Documented viability at 28.5 h, 10 µM of `COCCn1nc(C(=O)N(C)Cc2nc3ccccc3s2)ccc1=O` : 91.8

----------
assay: in vitro; settings: human, hela cells, % viability
MEASURED PARAMETER: viability at 28.5 h, 10 µM (%)
Lab book: enter the figure in %, no units written.

Documented viability at 28.5 h, 10 µM of `CS(=O)(=O)N(Cc1ccc(Cl)cc1)c1ccc(C(=O)Nc2ccccc2C(=O)O)cc1` : 105

Documented viability at 28.5 h, 10 µM of CCNC(=O)N1CC2(CCN(CCC(N)=O)CC2)c2ccccc21 [CBK144598T] : 99.6

Documented viability at 28.5 h, 10 µM of O=C(CCN1CCN(CCO)CC1)Nc1ccc2c(c1)CCC2 [CBK264262C] : 93.2

Documented viability at 28.5 h, 10 µM of `Cc1cc2nn(-c3ccccc3)nc2cc1NC(=O)c1ccc(-c2cccc([N+](=O)[O-])c2)o1` : 99.6

Documented viability at 28.5 h, 10 µM of `O=C(CN1CCC(c2ccc(F)cc2)CC1)Nc1nccs1` : 90

Documented viability at 28.5 h, 10 µM of `CC(C)(C)c1ccc(-c2cnc3ncccc3c2N)cc1` : 99.9

Documented viability at 28.5 h, 10 µM of `N#CCCSCc1ccc(C(=O)O)o1` : 115

Documented viability at 28.5 h, 10 µM of `Cc1ccc(Cl)cc1NC(=O)c1cc([N+](=O)[O-])ccc1NCCN1C(=O)c2ccccc2C1=O` : 99.5

Documented viability at 28.5 h, 10 µM of `CCN=C(S)NS(=O)(=O)c1ccc(C)cc1` : 86.2

----------
experiment: in vitro; conditions: human, hela cells, % viability
Give viability at 28.5 h, 10 µM for every item shown.
Lab book: enter the figure in %, no units written.

Documented viability at 28.5 h, 10 µM of `CCCn1nnnc1NCc1cccc(Cl)c1` : 98.7

Documented viability at 28.5 h, 10 µM of `CCC(C)(C)c1ccc(S(=O)(=O)N2CCCN(Cc3cccc4c3OCO4)CC2)cc1` : 100

Documented viability at 28.5 h, 10 µM of C[S+]([O-])CCNC(=O)Cn1c(-c2cccs2)cc2cccnc21 (centres unmarked) : 89.3

Documented viability at 28.5 h, 10 µM of `O=C(OCc1ccccc1)N1CCC2(CC1)CN(CCO)c1ccccc12` : 105

Documented viability at 28.5 h, 10 µM of `CCN1CCN(c2nccnc2OCc2cccnc2)CC1` : 113

Documented viability at 28.5 h, 10 µM of `O=C(NCCn1nc(-c2ccco2)ccc1=O)c1cccs1` : 92.5

Documented viability at 28.5 h, 10 µM of `CC(=O)[C@H]1C[C@@H](CC(=O)Nc2cc3cccnc3nc2Cl)C1(C)C` : 95.7

Documented viability at 28.5 h, 10 µM of CC(=O)N1c2ccc(-c3cc4ccccn4c3)cc2CC1C (centres unmarked) : 79.9

Documented viability at 28.5 h, 10 µM of CCc1cnc(CN(C)C2CCN(CC(=O)NCc3ccco3)C2)o1 (centres unmarked) : 94.8

Documented viability at 28.5 h, 10 µM of CC(C)C1OC(N2CCOCC2)=NC1=O (centres unmarked) : 92.3

Documented viability at 28.5 h, 10 µM of c1ccc(Cn2ccc3c(N4CCNCC4)nccc32)cc1 [CBK051672C] : 87.9

Documented viability at 28.5 h, 10 µM of `CCN1C(=O)COC[C@@H]1[C@H](O)c1ccc(NC(=O)COc2ccccc2)cc1` : 96.6

Documented viability at 28.5 h, 10 µM of `Cc1cc(NC(=O)N2CCN(CCNC(=O)C3CCCC3)CC2)no1` : 100

Documented viability at 28.5 h, 10 µM of CCOC(=O)C1=C(C)NC(=O)NC1c1ccc(Cl)cc1Cl (centres unmarked) : 93.2

Documented viability at 28.5 h, 10 µM of Cc1cc(C)n(CCCC(=O)N2CCOCC(O)(CN3CCCC3)C2)n1 (centres unmarked) : 101

Documented viability at 28.5 h, 10 µM of `CCCS(=O)(=O)N1CCN(C(=O)c2cccnc2)CC1` : 93.8

Documented viability at 28.5 h, 10 µM of CC1(C)NC(=O)N(CC(O)COc2ccc([N+](=O)[O-])cc2)C1=O (centres unmarked) : 98.8

Documented viability at 28.5 h, 10 µM of `O=C(O)/C=C\C(=O)Nc1cccc(NC(=O)c2cccs2)c1` : 85.7

Documented viability at 28.5 h, 10 µM of `C(=N\N1CCOCC1)/c1cccs1` : 96.9

Documented viability at 28.5 h, 10 µM of `O=C1CC[C@@H](NCc2ccccc2O)[C@H](c2cc(F)cc(F)c2)N1` : 107

----------
experiment: in vitro; settings: human, hela cells, % viability
Give viability at 28.5 h, 10 µM for every item shown.
Lab book: enter the figure in %, no units written.

Documented viability at 28.5 h, 10 µM of Cc1cccc(-c2ncc(NC(=O)Cc3ccc(-c4ccccc4)cc3)nc2-c2ccc(N(C)C)cc2)c1 [CBK037567] : 98.1

Documented viability at 28.5 h, 10 µM of CC(=O)C(C(=O)Nc1ccc(F)cc1)C(c1cccc2ccccc12)C(C#N)C#N (stereo not drawn) [CBK262081] : 90.4

Documented viability at 28.5 h, 10 µM of CCOc1ccc(-c2ccnc(N[C@H]3CC[C@@H](N)CC3)n2)cc1C(=O)O [CBK307104] : 89.8

Documented viability at 28.5 h, 10 µM of O=C1Nc2ccccc2C1Cc1cccc(OC(F)F)c1 (stereo not drawn) [CBK287892] : 95

Documented viability at 28.5 h, 10 µM of CCCC/C=C/c1cnc(N)c(-c2ccc(C(=O)NCCO)cc2)n1 [CBK064141] : 106

Documented viability at 28.5 h, 10 µM of O=C(O)c1cccc(Nc2nc(Nc3ccccc3)nc(N3CCCC3)n2)c1 [CBK286863] : 89.8

Documented viability at 28.5 h, 10 µM of Cc1ccc2nc(-c3ccccc3)cc(C(=O)NCCCn3ccnc3)c2c1 [CBK268526] : 96.1

Documented viability at 28.5 h, 10 µM of COc1ccc(CCNc2nc3c([nH]2)c(=O)n(C)c(=O)n3C)cc1 [CBK269897] : 85.5

Documented viability at 28.5 h, 10 µM of COCc1ccc(C(=O)N2CCC(Cc3ccccc3-c3cccs3)(C(N)=O)CC2)cc1 [CBK286276] : 102
